- System: E. coli BW25113 ΔtolC growth inhibition, OD615
- Test method notes: growth inhibitors of E. coli tolC mutant, dose response, strain BW25113 ΔtolC::kan (AID 617);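 further: growth read after 20 h at 37 °C with compound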
pIC50: −log10 of the molar value.
Quick rule for you: pIC50 at 5 or higher means Yes, lower means No.

N#Cc1c(/N=C/c2ccco2)oc(-c2ccccc2)c1-c1ccccc1    Yes
Cc1ccc(S(=O)(=O)Nc2cccc(-c3cn4ccsc4n3)c2)cc1    No

Check this compound for pIC50 at or above 5: `O=S(=O)(Nc1ncnc2sc3c(c12)CCC3)c1ccc(Cl)s1`
Yes

Does `CCN(c1cccc(C(F)(F)F)c1)S(=O)(=O)c1ccc2c(c1)CCN2C(=O)C1CC1` have a reported pIC50 of at least 5?
No

Reported pIC50 reaches at least 5 for `O=C(NC1CCCC1)c1sc(=S)n2c1[nH]c(=O)c1ccccc12` ?
Yes

Kindly determine if pIC50 recorded for CCCN(CCC)c1nc2ccccc2nc1C(C#N)C(=O)OCCOC (stereo unspecified) is above or exactly 5.
No

* * *

- Tested on: E. coli BW25113 ΔtolC growth inhibition, OD615
- Test method notes: growth inhibitors of E. coli tolC mutant, dose response, strain BW25113 ΔtolC::kan (AID 617);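 further: growth read after 20 h at 37 °C with compound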
Result type: IC50

Here are 3 compounds together with their reported answers.
CCCOc1ccc(C2C(C(=O)c3ccc(C)o3)=C(O)C(=O)N2Cc2cccnc2)cc1 (configuration not stated)    36.1 µM
N#Cc1nc(COc2ccccc2)oc1N1CCN(Cc2ccccc2)CC1    14.3 µM
Cc1onc(-c2ccccc2Cl)c1C(=O)Nc1sc2c(c1C#N)CCC2    7.5 µM

Give IC50 for the following compound: Cc1cccc(N2C(N)=C(C#N)C(C#N)(C#N)C2c2ccccc2)c1 (configuration not stated)
13.3 µM

* * *

- Test system: E. coli BW25113 ΔtolC growth inhibition, OD615
- Test method notes: growth inhibitors of E. coli tolC mutant, dose response, strain BW25113 ΔtolC::kan (AID 617);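 further: growth read after 20 h at 37 °C with compound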
Result type: pIC50
A value of pIC50 is the negative decimal logarithm of a concentration given in moles per litre.

Previously resolved entries follow.
c1ccc(CSc2nnc(-c3ccco3)n2Cc2ccccc2)cc1    4.86
COc1cc(-c2nnc(SCc3ccccc3Cl)o2)cc(OC)c1OC    4.99
O=C(CSc1nnc2scc(-c3ccccc3)n12)Nc1nsc(-c2ccccc2)n1    4.88
COc1ccc(-c2noc(C)c2-c2ccc3ccccc3n2)c(O)c1    5.05

Specify measured pIC50 for CC1=C(C(=O)OC2CCCC2)C(c2ccc(C)o2)C2=C(CC(c3cccs3)CC2=O)N1 (stereo not given) .
4.95

* * *

- Tested on: E. coli BW25113 ΔtolC growth inhibition, OD615
- Test method notes: growth inhibitors of E. coli tolC mutant, dose response, strain BW25113 ΔtolC::kan (AID 617);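 further: growth read after 20 h at 37 °C with compound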
Result type: pIC50
Recall that pIC50 is obtained by taking minus log10 of the concentration measured in molar.

O=C(O)CCCC(=O)N1CCc2cc(S(=O)(=O)N3CCc4ccccc43)ccc21    4.97
O=C(CSc1nnnn1C1CCCCC1)Nc1nc2c(s1)CCCC2    4.99
CCOC(=O)c1c(NC(=O)CSc2nnc(C)c(=O)[nH]2)sc2c1CCC2    4.97
O=C(NCc1ccc2c(c1)OCO2)c1ccc(COc2cccc(Cl)c2)o1    5.14
O=C(NC1CCCCCCC1)c1ccccc1O    5.05
CCOC(=O)C1CCN(c2ncnc3c2oc2ccc(Br)cc23)CC1    4.89
CC(=O)c1c(O)cc(C)n(Nc2nc(C)cc(C)n2)c1=O    4.88
CCOC(=O)c1sc(NC(=O)c2c(C)nn(Cc3ccccc3)c2C)cc1C    5.03
CCCCc1ccc(C2C(C#N)=C(N)SC(N)=C2C#N)s1    4.86
CCn1cc(C(=O)OCC(=O)OC2CC(C)CCC2C(C)C)c(=O)c2ccc(C)nc21 (configuration not stated)    5.12

State its pIC50: `N#Cc1nc(Cc2cccc3ccccc23)oc1NCc1ccc(F)cc1`
4.93

Give reported pIC50 value for `CCCCOc1[nH]c2nc(-c3ccco3)n(Cc3ccco3)c(=N)c2c1C#N`
4.92

* * *

- Tested on: E. coli BW25113 ΔtolC growth inhibition, OD615
- Test method notes: growth inhibitors of E. coli tolC mutant, dose response, strain BW25113 ΔtolC::kan (AID 617);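 further: growth read after 20 h at 37 °C with compound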
Result type: IC50

Illustrative cases are given below, each with its answer.
CC(C)(C)c1ccc(OCC(=O)NCc2ccco2)c(Br)c1    14.6 µM
Cc1nc2c(C(=O)NCc3ccc4c(c3)OCO4)c[nH]n2c(=O)c1Cc1ccccc1F    2.6 µM
COc1ccc(-c2[nH]ncc2Oc2ccccc2OC)c(O)c1    10.5 µM
O=C(Nc1cccc2cccnc12)c1ccc(Br)o1    10.6 µM
COc1cc(C2C(C(=O)c3ccc(C)o3)=C(O)C(=O)N2c2cc(C)on2)cc(Br)c1O (configuration not stated)    24.7 µM
OC(COc1ccc2ccccc2c1Br)Cn1ccnc1 (configuration not stated)    7.54 µM

Okay, now this molecule:
Tell me measured IC50 for `COc1ccccc1N1CCN(c2nc(C)nc3c2oc2ccccc23)CC1` please.
11.4 µM

* * *

- Test system: E. coli BW25113 ΔtolC growth inhibition, OD615
- Test method notes: growth inhibitors of E. coli tolC mutant, dose response, strain BW25113 ΔtolC::kan (AID 617);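 further: growth read after 20 h at 37 °C with compound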
Result type: IC50

Study these solved cases before continuing.
CCCCn1c(N2CCC(Cc3ccccc3)CC2)nc2c1c(=O)[nH]c(=O)n2C    5.96 µM
Oc1c(CN2CCCCC2)cc(Br)c2cccnc12    4.8 µM
CN(Cc1ccccc1)C(=O)CSc1nc2ccccc2c(=O)n1Cc1ccco1    10.7 µM
c1ccc(CSc2nnc(-c3cccs3)n2Cc2ccco2)cc1    13.2 µM
COc1ccc(Cn2c(=O)sc3ccccc32)cc1    61.7 µM
CCOC(=O)N1CCC(Nc2nc3ccccc3nc2NS(=O)(=O)c2ccc(Cl)cc2)CC1    5.49 µM
CN(C)c1ccc(C2C=C(c3ccc(Cl)cc3OC(F)F)Nc3ncnn32)cc1 (stereo unspecified)    1.95 µM
O=C(Nc1nnc(-c2ccc(F)cc2)o1)c1ccco1    16.3 µM
O=C(Nc1ccc2oc(Cc3ccc(Cl)cc3)nc2c1)c1cccnc1    53.9 µM
Cc1ccccc1Cn1nc(C)c(NC(=O)c2noc3c2CC(C(C)(C)C)CC3)c1C (stereo unspecified)    9.29 µM

Read the next record carefully.
Look up and report measured IC50 (E. coli BW25113 ΔtolC growth inhibition, OD615) for the following compound: Cc1ccc(C)c2[nH]c(=O)c(CN(CC3CCCO3)S(=O)(=O)c3ccc4c(c3)OCCO4)cc12 (stereo unspecified)
38.6 µM

* * *

- System: E. coli BW25113 ΔtolC growth inhibition, OD615
- Test method notes: growth inhibitors of E. coli tolC mutant, dose response, strain BW25113 ΔtolC::kan (AID 617);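 further: growth read after 20 h at 37 °C with compound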
pIC50 listing for selected compounds.
The scale used: pIC50 is minus the common logarithm of the concentration in molar units.

Below, each entry is followed by its recorded pIC50 result.
CC(C)(C)c1[nH]nc2c1C(Cc1ccccc1)C(C#N)=C(N)O2 (centres undefined)    4.50
O=S(=O)(Nc1ccc(S(=O)(=O)N2CCCCC2)cc1)c1ccc(Br)s1    5.36
CC(C)c1nnc(NC(=O)c2c(O)c3cccc4c3n(c2=O)CC4)s1    4.46

GET pIC50 where system = E. coli BW25113 ΔtolC growth inhibition, OD615 and item = O=C1CCCC2=C1C(c1cccs1)n1nc(SCc3ccccc3)nc1N2 (centres undefined)
4.80

Find pIC50 for `CC1CCN(c2oc(-c3ccccc3F)nc2C#N)CC1` on E. coli BW25113 ΔtolC growth inhibition, OD615 and write it down.
4.72

Identify measured pIC50 obtained with E. coli BW25113 ΔtolC growth inhibition, OD615 for `COC(=O)c1cn(NC(=O)c2cnccn2)c(=O)c2ccccc12` .
5.61

* * *

- Tested on: E. coli BW25113 ΔtolC growth inhibition, OD615
- Test method notes: growth inhibitors of E. coli tolC mutant, dose response, strain BW25113 ΔtolC::kan (AID 617);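 further: growth read after 20 h at 37 °C with compound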
pIC50: −log10 of the molar value.
Would you please tag the item true (1) when its pIC50 is 5 or above, and false (0) when it is below?

Completed entries (count: 8):
Cc1cc(C)n(-c2nc(SCC(=O)N3CCCC3)c3c4c(sc3n2)CCCC4)n1    false (0)
CC(=O)c1c(C)n([O-])c2ccccc2[n+]1=O    true (1)
CCC(CC)c1nnc(NC(=O)c2c(-c3ccccc3)noc2C)s1    false (0)
CCn1nc(-c2ccccc2)nc2c(=O)n(C)c(=O)nc1-2    true (1)
CCOc1ccccc1NC(=O)c1cc(CC(C)C)oc1C    false (0)
C=C(C)COc1ccc(-c2[nH]ncc2Oc2ccccc2OCC)c(O)c1    true (1)
COc1ccc(OC)c(C(=O)COC(=O)c2cc(C)oc2C)c1    false (0)
CCCCC(CC)CNC(=O)c1[nH]c(C)c(C(C)=O)c1C (stereo not given)    true (1)

Test whether the molecule `CC(C)Cn1c(=O)c(C(=O)Nc2ccncc2)c(O)c2ccccc21` records pIC50 of 5 or higher.
true (1)

Is reported pIC50 greater than or equal to 5 here: COc1ccc2nc(NC(=O)C3CCCN(S(=O)(=O)c4cccs4)C3)sc2c1 (stereo not given)
false (0)

Is it the case that CC1CN(S(=O)(=O)c2ccc(C(=O)Nc3nnc(-c4ccc5c(c4)CCCC5)o3)cc2)CC(C)O1 (stereo not given) has pIC50 reaching or exceeding 5?
true (1)

Quick check: does Clc1ccc(COC(Cn2ccnc2)c2ccc(Cl)cc2Cl)cc1 (stereo not given) have pIC50 greater than or equal to 5?
true (1)

Evaluate `CCCOC(=O)c1ccc(Oc2c(-c3ccc(O)cc3O)n[nH]c2C)cc1` : pIC50 at minimum 5?
true (1)
